- Tested on: Staphylococcus aureus
- test.protocol: Antibacterial activity against Staphylococcus aureus ATCC 29213 after 16 to 22 hrs by broth microdilution method
- Format: functional
Exercise: for every item that follows, state its recorded MIC.
Give bare numbers, in µg/mL.

• CC[C@H]1OC(=O)[C@H](C)[C@@H](O[C@H]2C[C@@](C)(OC)[C@@H](O)[C@H](C)O2)[C@H](C)[C@@H](O[C@@H]2O[C@H](C)C[C@H](N(C)C)[C@H]2O)[C@](C)(O)C[C@@H](C)CN(CCCN(CCC#N)C(=O)NC(C)C)[C@H](C)[C@@H](O)[C@]1(C)O = 4

For every listed record, write down its MIC.
1. CC[C@H]1OC(=O)[C@H](C)[C@@H](O[C@H]2C[C@@](C)(OC)[C@@H](O)[C@H](C)O2)[C@H](C)[C@@H](O[C@@H]2O[C@H](C)C[C@H](N(C)C)[C@H]2O)[C@](C)(O)C[C@@H](C)CN(CCCNC(=O)Nc2cccc3ccccc23)[C@H](C)[C@@H](O)[C@]1(C)O
2. CC[C@H]1OC(=O)[C@H](C)[C@@H](O[C@H]2C[C@@](C)(OC)[C@@H](O)[C@H](C)O2)[C@H](C)[C@@H](O[C@@H]2O[C@H](C)C[C@H](N(C)C)[C@H]2O)[C@](C)(O)C[C@@H](C)CN(CCCNC(=O)NCc2ccccc2)[C@H](C)[C@@H](O)[C@]1(C)O

## Result
[0.5, 0.5]

###

- Test system: Haemophilus influenzae
- test.protocol: Antibacterial activity against Haemophilus influenzae ATCC 49247 after 16 to 22 hrs by broth dilution method
- Format: functional
Exercise: for every item that follows, state its recorded MIC.
Answers are plain numbers, in mg/L.

* CC[C@H]1OC(=O)[C@H](C)[C@@H](O[C@H]2C[C@@](C)(OC)[C@@H](O)[C@H](C)O2)[C@H](C)[C@@H](O[C@@H]2O[C@H](C)C[C@H](N(C)C)[C@H]2O)[C@](C)(O)C[C@@H](C)CN(CCCNC(=O)Nc2cccc3ccccc23)[C@H](C)[C@@H](O)[C@]1(C)O | 1
* CC[C@H]1OC(=O)[C@H](C)[C@@H](O[C@H]2C[C@@](C)(OC)[C@@H](O)[C@H](C)O2)[C@H](C)[C@@H](O[C@@H]2O[C@H](C)C[C@H](N(C)C)[C@H]2O)[C@](C)(O)C[C@@H](C)CN(CCCN(CCC#N)C(=O)Nc2ccc3ccccc3c2)[C@H](C)[C@@H](O)[C@]1(C)O | 2
* CC[C@H]1OC(=O)[C@H](C)[C@@H](O[C@H]2C[C@@](C)(OC)[C@@H](O)[C@H](C)O2)[C@H](C)[C@@H](O[C@@H]2O[C@H](C)C[C@H](N(C)C)[C@H]2O)[C@](C)(O)C[C@@H](C)CN(CCCN(CCC#N)C(=O)Nc2ccccc2)[C@H](C)[C@@H](O)[C@]1(C)O | 8
* CC[C@H]1OC(=O)[C@H](C)[C@@H](O[C@H]2C[C@@](C)(OC)[C@@H](O)[C@H](C)O2)[C@H](C)[C@@H](O[C@@H]2O[C@H](C)C[C@H](N(C)C)[C@H]2O)[C@](C)(O)C[C@@H](C)CN(C)[C@H](C)[C@@H](O)[C@]1(C)O [AZITHROMYCIN] | 1
* CC[C@H]1OC(=O)[C@H](C)[C@@H](O[C@H]2C[C@@](C)(OC)[C@@H](O)[C@H](C)O2)[C@H](C)[C@@H](O[C@@H]2O[C@H](C)C[C@H](N(C)C)[C@H]2O)[C@](C)(O)C[C@@H](C)CN(CCCN(CCC#N)C(=O)NC(C)c2cccc3ccccc23)[C@H](C)[C@@H](O)[C@]1(C)O (some centres not stated) | 2

For every listed record, write down its MIC.
1. CC[C@H]1OC(=O)[C@H](C)[C@@H](O[C@H]2C[C@@](C)(OC)[C@@H](O)[C@H](C)O2)[C@H](C)[C@@H](O[C@@H]2O[C@H](C)C[C@H](N(C)C)[C@H]2O)[C@](C)(O)C[C@@H](C)CN(CCCNC(=S)NCCCc2ccccc2)[C@H](C)[C@@H](O)[C@]1(C)O
2. CC[C@H]1OC(=O)[C@H](C)[C@@H](O[C@H]2C[C@@](C)(OC)[C@@H](O)[C@H](C)O2)[C@H](C)[C@@H](O[C@@H]2O[C@H](C)C[C@H](N(C)C)[C@H]2O)[C@](C)(O)C[C@@H](C)CN(CCCNC(=S)NCCc2ccccc2)[C@H](C)[C@@H](O)[C@]1(C)O

## Result
1. 2
2. 2
